experiment: Inhibition of ABCB1 in human KBVIN cells assessed as potentiation of vincristine-induced cytotoxicity by measuring vincristine IC50 at 10 uM after 72 hrs by SRB assay (Rvb = 2867.34 +/- 142.36 nM)
assay.endpoint: IC50

>>> recorded_result("Cc1cccc(-c2coc3c(c(O)cc4occ(-c5cccc(C)c5)c(=O)c43)c2=O)c1")
"0.096 µM"

---

experiment: Inhibition of full length human ABCB1 expressed in Flp-In-293 cells assessed as potentiation of doxorubicin-induced cytotoxicity by measuring doxorubicin IC50 at 10 uM after 72 hrs by SRB assay (Rvb = 914.83 +/- 15.85 nM)
assay.endpoint: IC50 (nM)

>>> recorded_result("COc1ccc(-c2coc3c(c(O)cc4occ(-c5ccc(OC)c(OC)c5)c(=O)c43)c2=O)cc1OC")
594
>>> recorded_result("COc1ccc(-c2coc3c(c(O)cc4occ(-c5ccc(OC)cc5)c(=O)c43)c2=O)cc1")
544
>>> recorded_result("Cc1cccc(-c2coc3c(c(O)cc4occ(-c5cccc(C)c5)c(=O)c43)c2=O)c1")
586

---

assay: Inhibition of ABCB1 in human KBVIN cells assessed as potentiation of vincristine-induced cytotoxicity by measuring vincristine IC50 at 8 uM after 72 hrs by SRB assay (Rvb = 2867.34 +/- 142.36 nM)
pIC50: −log10 of the molar value.
assay.endpoint: pIC50

>>> recorded_result("Cc1cccc(-c2coc3c(c(O)cc4occ(-c5cccc(C)c5)c(=O)c43)c2=O)c1")
6.41

---

assay: Inhibition of full length human ABCB1 expressed in Flp-In-293 cells assessed as potentiation of vincristine-induced cytotoxicity by measuring vincristine IC50 at 10 uM after 72 hrs by SRB assay (Rvb = 823.13 +/- 15.79 nM)
List of IC50 values.
assay.endpoint: IC50

>>> recorded_result("Cc1cccc(-c2coc3c(c(O)cc4occ(-c5cccc(C)c5)c(=O)c43)c2=O)c1")
"39 nM"
>>> recorded_result("COc1ccc(-c2coc3c(c(O)cc4occ(-c5ccc(OC)c(OC)c5)c(=O)c43)c2=O)cc1OC")
"85 nM"
>>> recorded_result("COc1ccc(-c2coc3c(c(O)cc4occ(-c5ccc(OC)cc5)c(=O)c43)c2=O)cc1")
"500 nM"
